# ASSAY_DETAILS: solubility of indomethacin in aqueous buffer at pH 2.5 (excess solid, stirred, 20 nm filtered, HPLC)
# Format: physicochemical
# COND: aqueous buffer, thermodynamic from solid; pH 2.5, 37° C., after three days stirring; read-out: dissolved indomethacin concentration (solubility) in aqueous buffer
READOUT_NAME: solubility at 3 days

Name the recorded solubility at 3 days of the item "COc1ccc2c(c1)c(CC(=O)O)c(C)n2C(=O)c1ccc(Cl)cc1" in your answer.
< 1 µg/mL

----------
# ASSAY_DETAILS: solubility of indomethacin in aqueous buffer at pH 2.5 (excess solid, stirred, 20 nm filtered, HPLC)
# Assay type: physicochemical
# COND: aqueous buffer, thermodynamic from solid; pH 2.5, three days at 37° C. plus an additional day at 95° C.; read-out: dissolved indomethacin concentration (solubility) in aqueous buffer
READOUT_NAME: solubility

Quick one: give measured solubility for "COc1ccc2c(c1)c(CC(=O)O)c(C)n2C(=O)c1ccc(Cl)cc1"
~27 µg/mL
